Recorded kd, one value per entry.
- target_or_system: memAb anti-HER2
- assay_info: SPR binding kinetics of meditope variants to immobilized memAb anti-HER2
- experimental_context: SPR, 25°C, n=1
outcome_measure: kd

>>> endpoint_result("CC(C)C[C@@H]1NC(=O)[C@H](CCCNC(=N)N)NC(=O)[C@H](CCCNC(=N)N)NC(=O)[C@H]([C@@H](C)O)NC(=O)[C@H](CO)NC(=O)[C@H](CC(C)C)NC(=O)[C@H](CC(=O)O)NC(=O)[C@H](Cc2ccc(Br)cc2)NC(=O)[C@H](CCC(N)=O)NC(=O)[C@@H](N)CSSC[C@@H](C(=O)O)NC(=O)[C@H](CCCCN)NC1=O")
"0.042 s⁻¹"
>>> endpoint_result("CC(=O)N[C@H]1CSSC[C@@H](C(=O)NCC(=O)NCC(=O)N[C@@H](CO)C(=O)N[C@@H](CCCCN)C(=O)O)NC(=O)[C@H](CCCNC(=N)N)NC(=O)[C@H](CC(C)C)NC(=O)[C@H](CCCNC(=N)N)NC(=O)[C@H](CCCNC(=N)N)NC(=O)[C@H]([C@@H](C)O)NC(=O)[C@H](CO)NC(=O)[C@H](CC(C)C)NC(=O)[C@H](CC(=O)O)NC(=O)[C@H](Cc2ccccc2)NC(=O)[C@H](CCC(N)=O)NC1=O")
"0.006 s⁻¹"
>>> endpoint_result("CC(C)C[C@@H]1NC(=O)[C@H](CCCNC(=N)N)NC(=O)[C@H](CCCNC(=N)N)NC(=O)[C@H]([C@@H](C)O)NC(=O)[C@H](CO)NC(=O)[C@H](C(c2ccccc2)c2ccccc2)NC(=O)[C@H](CC(=O)O)NC(=O)[C@H](Cc2ccccc2)NC(=O)[C@H](CCC(N)=O)NC(=O)[C@@H](N)CSSC[C@@H](C(=O)O)NC(=O)[C@H](CCCCN)NC1=O [CQFDA(Ph)2STRRLKC]")
"0.008 s⁻¹"

###

- target_or_system: memAb anti-HER2
- assay_info: SPR binding kinetics of meditope variants to immobilized memAb anti-HER2
- experimental_context: SPR, 25°C, n=1
outcome_measure: Kd (µM)

>>> endpoint_result("CC(C)C[C@@H]1NC(=O)[C@H](CCCNC(=N)N)NC(=O)[C@H](CCCNC(=N)N)NC(=O)[C@H]([C@@H](C)O)NC(=O)[C@H](CO)NC(=O)[C@H](CC(C)C)NC(=O)[C@H](CC(=O)O)NC(=O)[C@H](Cc2ccc(O)cc2)NC(=O)[C@H](CCC(N)=O)NC(=O)[C@@H](N)CSSC[C@@H](C(=O)O)NC(=O)[C@H](CCCCN)NC1=O")
3.9

###

pKd: recorded values
- target_or_system: memAb anti-HER2
- assay_info: SPR binding kinetics of meditope variants to immobilized memAb anti-HER2
- experimental_context: SPR, 25°C, n=1
pKd: −log10 of the molar value.
outcome_measure: pKd

>>> endpoint_result("CC(C)C[C@@H]1NC(=O)[C@H](CCCNC(=N)N)NC(=O)[C@H](CCCNC(=N)N)NC(=O)[C@H]([C@@H](C)O)NC(=O)[C@H](CO)NC(=O)[C@H](CC(C)C)NC(=O)[C@H](CC(=O)O)NC(=O)[C@H](Cc2ccccc2)NC(=O)[C@H](CCC(N)=O)NC(=O)CCCCCCNC(=O)[C@H](CCCCN)NC1=O")
5.24
>>> endpoint_result("CC(C)C[C@@H]1NC(=O)[C@H](CCCNC(=N)N)NC(=O)[C@H](CCCNC(=N)N)NC(=O)[C@H]([C@@H](C)O)NC(=O)[C@H](CO)NC(=O)[C@H](CC(C)C)NC(=O)[C@H](CC(=O)O)NC(=O)[C@H](C(c2ccccc2)c2ccccc2)NC(=O)[C@H](CCC(N)=O)NC(=O)[C@@H](N)CSSC[C@@H](C(=O)O)NC(=O)[C@H](CCCCN)NC1=O")
5.59
>>> endpoint_result("CC(C)C[C@@H]1NC(=O)[C@H](CCCNC(=N)N)NC(=O)[C@H](CCCNC(=N)N)NC(=O)[C@H]([C@@H](C)O)NC(=O)[C@H](CO)NC(=O)[C@H](CC(C)C)NC(=O)[C@H](CC(=O)O)NC(=O)[C@H](Cc2ccccc2)NC(=O)[C@H](CCC(N)=O)NC(=O)CCSSC[C@@H](C(=O)O)NC(=O)[C@H](CCCCN)NC1=O")
6.00

###

pKd reference
- target_or_system: memAb anti-HER2
- assay_info: SPR binding kinetics of meditope variants to immobilized memAb anti-HER2
- experimental_context: SPR, 25°C, n=1
pKd: −log10 of the molar value.
outcome_measure: pKd

>>> endpoint_result("CC(C)C[C@@H]1NC(=O)[C@H](C)NC(=O)[C@H](CCCNC(=N)N)NC(=O)[C@H](CO)NC(=O)[C@H](CO)NC(=O)[C@H](CC(C)C)NC(=O)[C@H](CC(N)=O)NC(=O)[C@H](Cc2ccc(O)cc2)NC(=O)[C@H](CCC(N)=O)NC(=O)[C@@H](N)CSSC[C@@H](C(=O)O)NC(=O)[C@H](CCCCN)NC1=O")
5.47
>>> endpoint_result("CC(C)C[C@@H]1NC(=O)[C@H](CCCNC(=N)N)NC(=O)[C@H](CCCNC(=N)N)NC(=O)[C@H]([C@@H](C)O)NC(=O)[C@H](CO)NC(=O)[C@H](CC(C)C)NC(=O)[C@H](CC(=O)O)NC(=O)[C@H](Cc2ccc(Br)cc2)NC(=O)[C@H](CCC(N)=O)NC(=O)[C@@H](N)CSSC[C@@H](C(=O)O)NC(=O)[C@H](CCCCN)NC1=O")
5.33
>>> endpoint_result("CC(C)C[C@@H]1NC(=O)[C@H](CCCNC(=N)N)NC(=O)[C@H](CCCNC(=N)N)NC(=O)[C@H]([C@@H](C)O)NC(=O)[C@H](CO)NC(=O)[C@H](C(c2ccccc2)c2ccccc2)NC(=O)[C@H](CC(=O)O)NC(=O)[C@H](Cc2ccccc2)NC(=O)[C@H](CCC(N)=O)NC(=O)[C@@H](N)CSSC[C@@H](C(=O)O)NC(=O)[C@H](CCCCN)NC1=O")
7.40
>>> endpoint_result("CC(=O)N[C@H]1CSSC[C@@H](C(=O)NCC(=O)NCC(=O)N[C@@H](CO)C(=O)N[C@@H](CCCCN)C(=O)O)NC(=O)[C@H](CCCNC(=N)N)NC(=O)[C@H](CC(C)C)NC(=O)[C@H](CCCNC(=N)N)NC(=O)[C@H](CCCNC(=N)N)NC(=O)[C@H]([C@@H](C)O)NC(=O)[C@H](CO)NC(=O)[C@H](CC(C)C)NC(=O)[C@H](CC(=O)O)NC(=O)[C@H](Cc2ccccc2)NC(=O)[C@H](CCC(N)=O)NC1=O")
6.68

###

A collection of compounds and their measured ka
- Test system: memAb anti-HER2
- assay_info: SPR binding kinetics of meditope variants to immobilized memAb anti-HER2
- experimental_context: SPR Biacore T100, memAb on CM5 chip, HBS-EP+, 1:1 model, 25°C, n=1
outcome_measure: ka

>>> endpoint_result("CC(C)C[C@@H]1NC(=O)[C@H](CCCNC(=N)N)NC(=O)[C@H](CCCNC(=N)N)NC(=O)[C@H]([C@@H](C)O)NC(=O)[C@H](CO)NC(=O)[C@H](CC(C)C)NC(=O)[C@H](CC(=O)O)NC(=O)[C@H](C(c2ccccc2)c2ccccc2)NC(=O)[C@H](CCC(N)=O)NC(=O)[C@@H](N)CSSC[C@@H](C(=O)O)NC(=O)[C@H](CCCCN)NC1=O")
"0.92 M-1s-1 x 104"
>>> endpoint_result("CC(C)C[C@@H]1NC(=O)[C@H](C)NC(=O)[C@H](CCCNC(=N)N)NC(=O)[C@H](CO)NC(=O)[C@H](CO)NC(=O)[C@H](CC(C)C)NC(=O)[C@H](CC(N)=O)NC(=O)[C@H](Cc2ccc(O)cc2)NC(=O)[C@H](CCC(N)=O)NC(=O)[C@@H](N)CSSC[C@@H](C(=O)O)NC(=O)[C@H](CCCCN)NC1=O")
"0.97 M-1s-1 x 104"
>>> endpoint_result("CC(=O)N[C@H]1CSSC[C@@H](C(=O)NCC(=O)NCC(=O)N[C@@H](CO)C(=O)N[C@@H](CCCCN)C(=O)O)NC(=O)[C@H](CCCNC(=N)N)NC(=O)[C@H](CC(C)C)NC(=O)[C@H](CCCNC(=N)N)NC(=O)[C@H](CCCNC(=N)N)NC(=O)[C@H]([C@@H](C)O)NC(=O)[C@H](CO)NC(=O)[C@H](CC(C)C)NC(=O)[C@H](CC(=O)O)NC(=O)[C@H](Cc2ccccc2)NC(=O)[C@H](CCC(N)=O)NC1=O")
"2.8 M-1s-1 x 104"
>>> endpoint_result("CC(C)C[C@@H]1NC(=O)[C@H](CCCNC(=N)N)NC(=O)[C@H](CCCNC(=N)N)NC(=O)[C@H]([C@@H](C)O)NC(=O)[C@H](CO)NC(=O)[C@H](CC(C)C)NC(=O)[C@H](CC(=O)O)NC(=O)[C@H](Cc2ccc(O)cc2)NC(=O)[C@H](CCC(N)=O)NC(=O)[C@@H](N)CSSC[C@@H](C(=O)O)NC(=O)[C@H](CCCCN)NC1=O")
"2.8 M-1s-1 x 104"
>>> endpoint_result("CC(C)C[C@@H]1NC(=O)[C@H](CCCNC(=N)N)NC(=O)[C@H](CCCNC(=N)N)NC(=O)[C@H]([C@@H](C)O)NC(=O)[C@H](CO)NC(=O)[C@H](CC(C)C)NC(=O)[C@H](CC(=O)O)NC(=O)[C@H](Cc2ccc(Br)cc2)NC(=O)[C@H](CCC(N)=O)NC(=O)[C@@H](N)CSSC[C@@H](C(=O)O)NC(=O)[C@H](CCCCN)NC1=O")
"0.91 M-1s-1 x 104"
>>> endpoint_result("CC(C)C[C@@H]1NC(=O)[C@H](CCCNC(=N)N)NC(=O)[C@H](CCCNC(=N)N)NC(=O)[C@H]([C@@H](C)O)NC(=O)[C@H](CO)NC(=O)[C@H](CC(C)C)NC(=O)[C@H](CC(=O)O)NC(=O)[C@H](Cc2ccccc2)NC(=O)[C@H](CCC(N)=O)NC(=O)CCSSC[C@@H](C(=O)O)NC(=O)[C@H](CCCCN)NC1=O [(MPT) QFDLSTRRLKC]")
"1.8 M-1s-1 x 104"
>>> endpoint_result("CC(C)C[C@@H]1NC(=O)[C@H](CCCNC(=N)N)NC(=O)[C@H](CCCNC(=N)N)NC(=O)[C@H]([C@@H](C)O)NC(=O)[C@H](CO)NC(=O)[C@H](C(c2ccccc2)c2ccccc2)NC(=O)[C@H](CC(=O)O)NC(=O)[C@H](Cc2ccccc2)NC(=O)[C@H](CCC(N)=O)NC(=O)[C@@H](N)CSSC[C@@H](C(=O)O)NC(=O)[C@H](CCCCN)NC1=O [CQFDA(Ph)2STRRLKC]")
"20 M-1s-1 x 104"
>>> endpoint_result("CC(C)C[C@@H]1NC(=O)[C@H](CCCNC(=N)N)NC(=O)[C@H](CCCNC(=N)N)NC(=O)[C@H]([C@@H](C)O)NC(=O)[C@H](CO)NC(=O)[C@H](CC(C)C)NC(=O)[C@H](CC(=O)O)NC(=O)[C@H](Cc2ccccc2)NC(=O)[C@H](CCC(N)=O)NC(=O)CCCCCCNC(=O)[C@H](CCCCN)NC1=O")
"2.1 M-1s-1 x 104"
